Tested on: RAW264.7
Experiment: Antiinflammatory activity against LPS-stimulated mouse RAW264.7 cells assessed as suppression of NO secretion at 20 uM preincubated with compound for 2 hrs followed by LPS stimulation and measured after 24 hrs by Griess reagent based assay relative to control
Type: functional
Details: time 26 hrs
Value type: Activity (%)

given_smiles=CC(C)c1cc2c(cc1O)[C@@]1(C)CC[C@H](O)[C@](C)(C=O)[C@@H]1CC2 output_unit=% observed_result=95
given_smiles=CC(C)c1ccc2c(c1O)CC[C@@H]1[C@@](C)(CO)CCC[C@@]21C output_unit=% observed_result=94
given_smiles=CC(C)c1cc2c(cc1O)C(=O)C[C@H]1C(C)(C)CCC[C@]21C output_unit=% observed_result=86
given_smiles=CC(C)c1cc2c(cc1O)CC[C@H]1C(C)(C)[C@@H](O)CC[C@]21C output_unit=% observed_result=91

###

Recorded IC50 by entry
System: MDA-MB-231
Assay: Anticancer activity against human MDA-MB-231 cells assessed as inhibition of cell growth incubated for 48 hrs by MTT assay
Assay type: functional, cell-based
Conditions: MDA-MB-231, 48 h
Value type: IC50 (µM)

compound=C=C1C(=O)[C@@]23CC[C@@H]4C(C)(C)C(=O)CC[C@@]4(C)[C@@H]2CC[C@@H]1C3 tested_target=MDA-MB-231 value_type=IC50 output_unit=µM operator== observed_result=8.4
compound="C[C@@H]1CC[C@]2(C(=O)O)CC[C@]3(C)C(=CC[C@@H]4[C@@]5(C)C(CO)=CC(C)(C)[C@@H]5CC[C@]43C)[C@@H]2[C@]1(C)O [HYPTASIENIC ACID]" tested_target=MDA-MB-231 value_type=IC50 output_unit=µM operator=> observed_result=10
compound="CC(=O)O[C@H]1C(=O)[C@@]2(C)[C@H]([C@H](OC(=O)c3ccccc3)[C@]3(O)C[C@H](OC(=O)[C@H](O)[C@@H](NC(=O)c4ccccc4)c4ccccc4)C(C)=C1C3(C)C)[C@]1(OC(C)=O)CO[C@@H]1C[C@@H]2O [PACLITAXEL]" tested_target=MDA-MB-231 value_type=IC50 output_unit=µM operator== observed_result=0.03
compound=C=C1C(=O)[C@]23C[C@H]1CC[C@H]2[C@]1(C)CC[C@@H](O)C(C)(C)[C@H]1C[C@@H]3OC(C)=O tested_target=MDA-MB-231 value_type=IC50 output_unit=µM operator== observed_result=6.6
compound=C=C1C(=O)O[C@H]2C3=CC[C@@H]4C(C)(C)C(=O)CC[C@@]4(C)[C@@H]3CC[C@@H]12 tested_target=MDA-MB-231 value_type=IC50 output_unit=µM operator== observed_result=7.3

###

Test system: RAW264.7
Assay: Cytotoxicity against mouse RAW264.7 cells assessed as cell viability by MTT assay
Type: functional, cell-based
The source made the active and inactive calls. The rule behind the calls is not given here.
Value type: Activity

molecule=C=C1[C@@H]2CC[C@H]3[C@]4(C)CC[C@@H](O)C(C)(C)[C@H]4C[C@H](OC(C)=O)[C@]3(C2)[C@@H]1O value_type=Activity observed_result=inactive
molecule=C=C1C(=O)[C@@]23CC[C@@H]4C(C)(C)C(=O)CC[C@@]4(C)[C@@H]2CC[C@@H]1C3 value_type=Activity observed_result=inactive
molecule="CC1(C)CC[C@]2(C(=O)O)CC[C@]3(C)C(=C2C1)C=CC1[C@@]2(C)C[C@@H](O)[C@H](O)C(C)(C)[C@@H]2CC[C@]13C (some centres undefined)" value_type=Activity observed_result=inactive
molecule="C[C@@H]1CC[C@]2(C(=O)O)CC[C@]3(C)C(=CCC4[C@@]5(C)C[C@@H](O)OCC(C)(C)C5CC[C@]43C)C2[C@]1(C)O (some centres undefined)" value_type=Activity observed_result=inactive
